Reported IC50 values for a set of molecules
# experimental.target: hTRPC5 (Homo sapiens)
# Construct: expressed in transfected cells; host or cells: HEK293 TREx cells with inducible TRPC5 expression
# test.name: Whole-cell patch clamp, block of LaCl3-activated TRPC5 inward current
# Format: cell-based
# experimental.parameters: TRPC5-expressing HEK293 TREx cells, 80 μM LaCl3, inward current, IC50 estimated from 5 μM and 500 nM, read-out: hTRPC5 Patch La3+ Inwd (nM) (All Batches)

molecule | IC50
Cn1c(=O)c2c(nc(CCNCc3ccccc3)n2Cc2cccc(Br)c2)n(C)c1=O | 2000 to 10000 nM
Cn1c(=O)c2c(nc(SCc3ccncc3)n2Cc2cccc(Br)c2)n(C)c1=O | 2000 to 10000 nM
Cn1c(=O)c2c(nc(Oc3cccc(OC(F)(F)F)c3)n2Cc2ccc(Cl)cc2)n(C)c1=O | < 100 nM
Cn1c(=O)c2c(nc(Oc3cccc(F)c3)n2Cc2cccc(Br)c2)n(C)c1=O | 1000 to 2000 nM
CN1CCN(Cc2nc3c(c(=O)n(C)c(=O)n3C)n2Cc2cccc(Br)c2)CC1 | 2000 to 10000 nM
CCOCC[S+]([O-])c1nc2c(c(=O)n(C)c(=O)n2C)n1Cc1cccc(Br)c1 (centres unmarked) | 2000 to 10000 nM
Cn1c(=O)c2c(nc(SC(C)(C)C(=O)OC(C)(C)C)n2Cc2cccc(Br)c2)n(C)c1=O | 100 to 500 nM

Turning now to a further molecule:
Per the reported hTRPC5 (Homo sapiens) data, CC(c1ccc(Cl)cc1)n1c(Oc2cccc(C(F)(F)F)c2)nc2c1c(=O)n(C)c(=O)n2C (centres unmarked) has IC50 of 100 to 500 nM

====

Documented IC50 across a set of molecules
# experimental.target: hTRPC5 (Homo sapiens)
# Construct: expressed in transfected cells; host or cells: HEK293 TREx cells with inducible TRPC5 expression
# test.name: Whole-cell patch clamp, block of LaCl3-activated TRPC5 inward current
# Type: cell-based
# experimental.parameters: TRPC5-expressing HEK293 TREx cells, 80 μM LaCl3, inward current, IC50 estimated from 5 μM and 500 nM, read-out: hTRPC5 Patch La3+ Inwd (nM) (All Batches)
Structures can show the parent of a compound that is named as a salt.

# annotated cases, reported IC50 shown
molecule | readout.value
Cn1c(=O)c2c(nc(Oc3cccc(OC(F)(F)F)c3)n2Cc2ccc(Cl)c(Cl)c2)n(C)c1=O [Compound 197] | < 100 nM
CN(C)Cc1cccc(Oc2nc3c(c(=O)n(C)c(=O)n3C)n2Cc2cccc(Cl)c2)c1 [Compound 153, hydrochloride] | 2000 to 10000 nM
Cn1c(=O)c2c(nc(OCC3CCCC3)n2Cc2ccc(Cl)cc2)n(C)c1=O [Compound 216] | 100 to 500 nM
CCOCc1cccc(C(CC)c2nc3c(c(=O)n(C)c(=O)n3C)n2Cc2cccc(Br)c2)c1 (centres unmarked) [Compound 125] | 500 to 1000 nM

Noted for Cc1cc(Cn2c(Oc3cccc(OC(F)(F)F)c3)nc3c2c(=O)n(C)c(=O)n3C)ccc1Cl [Compound 206] : its IC50 reads < 100 nM

For record Cc1ccc(Cn2c(Oc3cccc(OC(F)(F)F)c3)nc3c2c(=O)n(C)c(=O)n3C)cc1 [Compound 178] the listed IC50 is 100 to 500 nM

get_value(item= CCCN(C)CCc1nc2c(c(=O)n(C)c(=O)n2C)n1Cc1cccc(Br)c1 [Compound 48, hydrochloride] , readout=IC50) returns 2000 to 10000 nM

Notebook: CCCOCCc1nc2c(c(=O)n(C)c(=O)n2C)n1Cc1ccc(OC)cc1 [Compound 89] , IC50 read as 2000 to 10000 nM

====

# experimental.target: hTRPC5 (Homo sapiens)
# Construct: expressed in transfected cells; host or cells: HEK293 TREx cells with inducible TRPC5 expression
# test.name: Whole-cell patch clamp, block of LaCl3-activated TRPC5 inward current
# Assay type: cell-based
# experimental.parameters: TRPC5-expressing HEK293 TREx cells, 80 μM LaCl3, inward current, IC50 estimated from 5 μM and 500 nM, read-out: hTRPC5 Patch La3+ Inwd (nM) (All Batches)
readout.kind: IC50

molecule | IC50
Cn1c(=O)c2c(nc(SCc3ncc[nH]3)n2Cc2cccc(Br)c2)n(C)c1=O | 2000 to 10000 nM
CCCCC(=O)c1nc2c(c(=O)n(C)c(=O)n2C)n1Cc1cccc(Br)c1 | < 100 nM
CCOC(=O)CCC(C)c1nc2c(c(=O)n(C)c(=O)n2C)n1Cc1cccc(Br)c1 (centres unmarked) | 500 to 1000 nM
CCNCCCc1nc2c(c(=O)n(C)c(=O)n2C)n1Cc1cccc(Br)c1 | 2000 to 10000 nM
CCc1coc(CSc2nc3c(c(=O)n(C)c(=O)n3C)n2Cc2cccc(C(C)=O)c2)n1 | 2000 to 10000 nM

// IC50 value for CCCOCCc1nc2c(c(=O)n(C)c(=O)n2C)n1Cc1cccc(C)c1 : 1000 to 2000 nM

The molecule COc1cccc(Cn2c(Oc3ccc(-c4ccccc4)nc3)nc3c2c(=O)n(C)c(=O)n3C)c1 showed IC50 equal to 2000 to 10000 nM

Quick note, IC50 for CCOC(=O)CC(C)(C)c1nc2c(c(=O)n(C)c(=O)n2C)n1Cc1cccc(Br)c1 landed at 500 to 1000 nM

====

Reported IC50 is given for each of the following compounds.
# experimental.target: hTRPC5 (Homo sapiens, UniProt Q9UL62)
# Construct: expressed in transfected cells; host or cells: HEK293 TREx cells with inducible TRPC5 expression
# Sequence (Q9UL62 1-973): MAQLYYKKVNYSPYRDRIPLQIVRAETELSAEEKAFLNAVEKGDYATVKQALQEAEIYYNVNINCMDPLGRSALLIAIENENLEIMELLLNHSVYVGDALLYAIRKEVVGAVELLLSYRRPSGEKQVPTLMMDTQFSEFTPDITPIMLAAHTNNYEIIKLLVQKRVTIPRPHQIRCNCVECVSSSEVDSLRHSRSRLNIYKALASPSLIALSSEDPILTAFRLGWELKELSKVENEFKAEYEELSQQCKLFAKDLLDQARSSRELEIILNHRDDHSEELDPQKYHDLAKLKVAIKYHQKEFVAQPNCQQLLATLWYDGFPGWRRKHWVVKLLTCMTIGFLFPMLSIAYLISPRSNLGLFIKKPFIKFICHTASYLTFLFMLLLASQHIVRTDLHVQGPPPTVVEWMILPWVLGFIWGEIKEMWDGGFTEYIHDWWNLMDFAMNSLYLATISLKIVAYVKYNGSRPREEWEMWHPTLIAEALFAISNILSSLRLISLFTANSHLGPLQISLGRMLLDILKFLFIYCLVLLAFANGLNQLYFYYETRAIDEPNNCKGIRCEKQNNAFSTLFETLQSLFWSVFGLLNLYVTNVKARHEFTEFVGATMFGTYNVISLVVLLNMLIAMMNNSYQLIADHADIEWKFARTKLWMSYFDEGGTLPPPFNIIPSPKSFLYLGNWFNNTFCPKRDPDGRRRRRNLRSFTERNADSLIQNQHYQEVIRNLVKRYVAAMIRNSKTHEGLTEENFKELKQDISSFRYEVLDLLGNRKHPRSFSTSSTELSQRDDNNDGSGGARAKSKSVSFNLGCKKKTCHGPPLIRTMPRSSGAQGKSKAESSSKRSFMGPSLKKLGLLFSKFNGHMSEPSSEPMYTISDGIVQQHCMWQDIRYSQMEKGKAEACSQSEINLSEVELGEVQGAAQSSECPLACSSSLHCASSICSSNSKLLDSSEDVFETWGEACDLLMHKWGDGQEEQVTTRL
# test.name: Whole-cell patch clamp, block of LaCl3-activated TRPC5 inward current
# Format: cell-based
# experimental.parameters: TRPC5-expressing HEK293 TREx cells, 80 μM LaCl3, inward current, IC50 estimated from 5 μM and 500 nM, read-out: hTRPC5 Patch La3+ Inwd (nM) (All Batches)

The cases that follow already have their IC50 on record.
compound | IC50
CCc1coc(CSc2nc3c(c(=O)n(C)c(=O)n3C)n2Cc2ccc(C(C)=O)cc2)n1 [Compound 181] | 2000 to 10000 nM
CC(O)CSc1nc2c(c(=O)n(C)c(=O)n2C)n1Cc1cccc(Br)c1 (centres unmarked) [Compound 5] | 2000 to 10000 nM
Cn1c(=O)c2c(nc(Nc3cccc(C(F)(F)F)c3)n2Cc2cccc(Br)c2)n(C)c1=O [Compound 172] | 2000 to 10000 nM
Cn1c(=O)c2c(nc(Oc3cccc(C(F)(F)F)c3)n2Cc2cccc(Cl)c2)n(C)c1=O [Compound 137] | 100 to 500 nM
Cn1c(=O)c2c(nc(OCc3cccc(C(F)(F)F)c3)n2Cc2ccc(Cl)cc2)n(C)c1=O [Compound 145] | < 100 nM
CCCc1cccc(Oc2nc3c(c(=O)n(C)c(=O)n3C)n2Cc2cccc(Br)c2)c1 [Compound 113] | < 100 nM
CCOC(=O)C(C)Cc1nc2c(c(=O)n(C)c(=O)n2C)n1Cc1cccc(Br)c1 (centres unmarked) [Compound 87] | 500 to 1000 nM
CCOCc1cccc(Oc2nc3c(c(=O)n(C)c(=O)n3C)n2Cc2cccc(Br)c2)c1 [Compound 126] | 100 to 500 nM
Cn1c(=O)c2c(nc(CCO)n2Cc2cccc(Br)c2)n(C)c1=O [Compound 39] | 2000 to 10000 nM
Cn1c(=O)c2c(nc(Oc3cccc(CO)c3)n2Cc2cccc(Cl)c2)n(C)c1=O [Compound 140] | 2000 to 10000 nM

So, CCOc1nc2c(c(=O)n(C)c(=O)n2C)n1Cc1cccc(Br)c1 [Compound 28] ? Its IC50 was 2000 to 10000 nM

For CCCOCCCc1nc2c(c(=O)n(C)c(=O)n2C)n1Cc1cccc(Br)c1 [Compound 82] the compound record lists IC50 as 1000 to 2000 nM

Summary for this compound, CCCNCCc1nc2c(c(=O)n(C)c(=O)n2C)n1Cc1cccc(Br)c1 [Compound 46] : IC50 is 2000 to 10000 nM

// IC50 lookup, compound = CCCOCCc1nc2c(c(=O)n(C)c(=O)n2C)n1Cc1cccc(OC)c1 [Compound 91] , result: 2000 to 10000 nM

# compound CCCOCCc1nc2c(c(=O)n(C)c(=O)n2C)n1Cc1cccc(-c2ccccc2)c1 [Compound 128] ; its IC50 = 100 to 500 nM

The value of IC50 measured for the compound CCCOCCc1nc2c(c(=O)n(C)c(=O)n2C)n1Cc1cccc(F)c1 [Compound 92] turned out to be 2000 to 10000 nM

Short answer for Cn1c(=O)c2c(nc(Oc3cccc(C(F)(F)F)c3)n2-c2ccc(Cl)cc2)n(C)c1=O [Compound 196] : IC50 was 2000 to 10000 nM
